Attribute: AC50
- MEASURED_TARGET: Cytochrome P450 3A4 (Homo sapiens, UniProt P08684);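 note: confirmatory qHTS run detecting inhibitors and substrates of CYP3A4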
- Sequence (P08684 whole entry): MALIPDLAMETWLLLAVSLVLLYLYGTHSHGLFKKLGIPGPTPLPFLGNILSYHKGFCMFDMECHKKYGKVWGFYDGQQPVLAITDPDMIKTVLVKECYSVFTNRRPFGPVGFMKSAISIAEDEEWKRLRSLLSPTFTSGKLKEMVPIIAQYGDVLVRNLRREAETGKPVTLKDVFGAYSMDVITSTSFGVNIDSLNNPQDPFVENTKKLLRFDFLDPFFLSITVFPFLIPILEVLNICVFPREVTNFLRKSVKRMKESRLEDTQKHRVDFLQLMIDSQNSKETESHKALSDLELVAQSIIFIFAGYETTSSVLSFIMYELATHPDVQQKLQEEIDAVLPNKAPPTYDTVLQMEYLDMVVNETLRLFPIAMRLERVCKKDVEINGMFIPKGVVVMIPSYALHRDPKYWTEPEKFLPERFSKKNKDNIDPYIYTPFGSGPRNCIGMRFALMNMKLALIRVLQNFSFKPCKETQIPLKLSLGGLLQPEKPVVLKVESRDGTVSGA
- CONDITIONS_USED: Potency

Consider the worked cases shown below.
• CCCCCCN(C(=O)CCCCCN1C(=O)NC(c2ccc(-c3ccccc3)cc2)C(C(=O)OCc2ccccc2)=C1C)C(C(=O)NCCCC)c1ccc(OCC(=O)O)c(C(=O)O)c1 (stereo not drawn) = 15.8 µM (inconclusive)
• COC(=O)[C@@]1(C)C=C[C@@H](Cc2ccccc2)N1C(C)=O = 31.6 µM (inconclusive)
• C=CC(C1=CC(=O)C(OC)=CC1=O)c1ccc(O)cc1 (stereo not drawn) [DALBERGIONE, 4-METHOXY-4'-HYDROXY-] = 25.1 µM (inconclusive)
• CC1(C)C(=O)C2C[C@]3(O)C4=CC(=O)OC(c5ccoc5)[C@]4(C)CCC3[C@](C)(C2=O)C1CC(=O)O (stereo partly drawn) = 25.1 µM (inconclusive)
• Nc1ccc(O)cc1 = 25.1 µM (inconclusive)
• CCCCNc1nc(C)nc2c1nc(-c1ccccc1)n2CCCCN(CC)CC = 12.6 µM (inconclusive)
• CC(=O)N1CC=CC1(CC(C)C)C(=O)NCc1ccc(C)o1 (stereo not drawn) = 15.8 µM (inconclusive)

Now look at this entry.
Task: Suppose we examine the molecule CCCN(CCC)c1c([N+](=O)[O-])cc(C(F)(F)F)cc1[N+](=O)[O-] ; what AC50 value has been reported?
Result: 15.8 µM (inconclusive)
